I'd be grateful if you could share measured phosphorylation enrichment for these entries.
Measured Target: MERTK (UniProt Q12866)
Sequence (Q12866 whole entry, looked up): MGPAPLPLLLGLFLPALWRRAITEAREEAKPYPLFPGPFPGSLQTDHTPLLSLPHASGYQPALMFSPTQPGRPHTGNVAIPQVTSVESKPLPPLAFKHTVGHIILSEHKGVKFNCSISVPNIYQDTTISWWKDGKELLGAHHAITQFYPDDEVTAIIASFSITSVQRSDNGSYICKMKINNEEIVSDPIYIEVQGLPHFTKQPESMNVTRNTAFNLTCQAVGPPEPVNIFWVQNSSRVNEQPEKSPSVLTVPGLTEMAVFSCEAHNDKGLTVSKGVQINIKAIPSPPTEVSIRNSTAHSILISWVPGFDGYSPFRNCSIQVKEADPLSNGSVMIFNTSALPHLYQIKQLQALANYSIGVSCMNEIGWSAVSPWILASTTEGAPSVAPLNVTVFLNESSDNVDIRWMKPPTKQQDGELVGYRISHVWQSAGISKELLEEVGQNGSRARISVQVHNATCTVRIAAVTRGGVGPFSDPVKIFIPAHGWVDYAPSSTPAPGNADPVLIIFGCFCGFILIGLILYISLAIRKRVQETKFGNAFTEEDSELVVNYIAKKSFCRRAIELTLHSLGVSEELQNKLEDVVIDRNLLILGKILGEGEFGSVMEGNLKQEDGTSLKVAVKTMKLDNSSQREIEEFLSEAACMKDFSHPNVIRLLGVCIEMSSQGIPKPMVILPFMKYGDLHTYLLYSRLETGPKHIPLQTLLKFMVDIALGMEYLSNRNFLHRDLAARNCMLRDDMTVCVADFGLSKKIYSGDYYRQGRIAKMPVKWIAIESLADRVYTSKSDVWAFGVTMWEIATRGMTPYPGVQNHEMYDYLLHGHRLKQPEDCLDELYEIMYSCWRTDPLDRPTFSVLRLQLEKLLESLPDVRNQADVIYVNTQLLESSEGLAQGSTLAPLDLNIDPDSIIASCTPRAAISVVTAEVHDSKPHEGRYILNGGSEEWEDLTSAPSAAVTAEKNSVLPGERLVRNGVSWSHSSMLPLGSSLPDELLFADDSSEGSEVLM
Procedure Details: phosphorylation enrichment, bacterial display (enrichment ratio); higher = better substrate or ligand; peptides without Tyr show the background;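 note: 11-residue human phosphosite peptides and single-mutation variants displayed on the E. coli surface, counted by deep sequencing, each peptide's frequency after selection divided by its frequency in the unselected input library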;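 note: frequency after pTyr selection over input frequency; kinase dosed for 20-30% of maximal phosphorylation in three min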
Answers are plain numbers.

These recorded examples may help you get a feel for the data.
PTDCVYVMPTV [MYO7A_Y1668_S1666C]    6.63
DPLLTHRFPPK [LMNA_Y481_Y481H]    0.421
HKANEYYPVVL [ADAMTS18_Y764]    1.13
YSTDYYRVGGH [NTRK2_Y707]    9.44
DPAFGYEDFTR [SESN2_Y323_T320A]    0.445

I'm hoping you can list phosphorylation enrichment for every sequence here, please.
1. EGNEQYEGYCV [GRIA3_Y451_R450Q]
2. CTTIHYNYMFN [TP53_Y234_C238F]

1. 0.422
2. 0.681
